# experiment.summary: yeast display, Sf9 membrane polyspecificity reagent, FACS + sequencing; frameworks hold sequencing errors
reported.endpoint: polyreactivity (PSR sort gate)

Use these answered entries as a reference point.
QVQLVESGGGLVQAGGSLRLSCAASGLIISWYAMGWNRQEPGTERELVAAISSGGSTTYADSVKGRFTISRDNAKNTVYLQMNSLKPEDTAVYYCNADQVFGYNYWGQGTQLTVSS high polyreactivity
QVQLVESGGGLVQAGGSLRLSCAASGSTFYGYAMGWYRQAPGKERELVAAISSSATRTYYADSVKGRFTISRDNAKNTVYLQMNSLKPEDTAVYYCAAVSTLLYYHYYTRDYWGQGTQVTVSS high polyreactivity
QVQLVESGGGLVQAGGSLRLSCAASGSIIKRNAMGWYRQAPGKERELVASISSGDGSTNYADSVKGRFTISRDNAKNTVYLQMNSLKPEDTAVYYCNAPFWGYRTSFSYPVVQRFDYWGQGTQVTVSS low polyreactivity
QVQLVESGGGLVQAGGSLRLSCAASGFIFVQNVMGWYRQAPGKERELVAAITWRGTSTYYADSVKGRFTISRDNAKNTVYLLMNSLKPEDTAVYDWNVDLQEDCEEYDYWGQGTQVTVSS low polyreactivity
HVQLVESGGGLVQAGGSLRLSCAASVTFSFYAMGWYTQSPGKERELVAAISSIGDSTYYADSVKGRFTISRDNAKNTVYLQMNSLKPEETAVYYYGVIAVDAYDYYTYDYWRQGTQVTVSS high polyreactivity
QVQLVESGGGLVQAGGSLRLSSAASGSIFARYAMGWYRPAPVKERELVAAISGRGGSTYYADSVKGRFTISRDNAKNTVYLQMNSLKPEDTAVYYCNAVGHTSIRRALDILDYWGQGPQVTVSS high polyreactivity

Request: Query: polyreactivity (PSR sort gate); subject: QVQLVESGGGLVQAGGSLRLSCAASGFTFRRYAMGWYRQAPGKERELVATITIGGSTSYADSVKGRFTISRDNAKNTVYLQMNSLKPEDTAVYYCAAVANPNRYRFDYWGQGSQVTVSS
Result: high polyreactivity

Request: Query: polyreactivity (PSR sort gate); subject: QVQLVESGGGLVQAGGSLRLSCAASGRTFSGYVMGWYRQAPGKERELVATINGSGASTYYADSVKGRFTISRDNAKNTVYLQRKSLKPEDSAVYYCAAKRYRPKYEYYYWGQGTQVTVSS
Result: high polyreactivity
